biological target: HLA A*0101 (Homo sapiens, UniProt P04439, A114D/A174V/A182V/D101N/D185E/E176A/E190D/L180R/Q94H/R68K/S129P/T187R/V100A/V91M/W191G); assay: HLA class I binding assay (cell-free competition, fluorescence polarization)
pIC50: −log10 of the molar value. Where a SMILES comes first, the peptide text is derived from it.
Quick list: pIC50 per entry.

Q: Which pIC50 value is on record for CC(C)C[C@H](NC(=O)[C@H](C)NC(=O)[C@H](CC(=O)O)NC(=O)[C@H](Cc1ccccc1)NC(=O)[C@@H](NC(=O)[C@@H](N)CC(N)=O)[C@@H](C)O)C(=O)N[C@@H](Cc1ccc(O)cc1)C(=O)N[C@@H](Cc1ccc(O)cc1)C(=O)N[C@H](C(=O)O)C(C)C (H-NTFDALYYV-OH) ?
A: < 3.00

Q: Would you mind telling me what pIC50 value was observed for CC(C)[C@H](NC(=O)[C@H](CCC(=O)O)NC(=O)[C@H](Cc1ccccc1)NC(=O)[C@@H](NC(=O)[C@H](CC(=O)O)NC(=O)[C@@H](N)CC(=O)O)[C@@H](C)O)C(=O)N[C@@H](Cc1ccc(O)cc1)C(=O)N[C@@H](CO)C(=O)N[C@@H](CCC(=O)O)C(=O)N[C@@H](Cc1ccc(O)cc1)C(=O)O (H-DDTFEVYSEY-OH; N-terminus assumed) ?
A: < 3.00

Q: Give the measured pIC50 of CC[C@H](C)[C@H](NC(=O)[C@H](CC(=O)O)NC(=O)[C@@H](NC(=O)[C@@H](N)CO)[C@@H](C)O)C(=O)N[C@H](C(=O)N[C@@H](Cc1ccccc1)C(=O)N[C@@H](CC(C)C)C(=O)N[C@H](C(=O)N[C@@H](CCSC)C(=O)N[C@@H](CCCCN)C(=O)O)[C@@H](C)O)[C@@H](C)CC (H-STDIIFLTMK-OH) .
A: < 3.00

* * *

target: HLA B*4402 (Homo sapiens, UniProt P01889, A223V/A65T/A93T/A95T/D201E/D98Y/E176V/E187L/E204Q/E69K/G107R/H137Y/K202T/L105A/L119I/N104T/N87E/Q56L/Q94N/R106L/R155S/R180D/S101N/S121R/S35A/S48T/T118I/V36M/W191S/Y140D/Y91S); test: HLA class I binding assay (cell-free competition, fluorescence polarization)
pIC50: −log10 of the molar value. Where a SMILES comes first, the peptide text is derived from it.
Listed molecules paired with reported pIC50

Example entries and their recorded answers appear below.
CC(C)C[C@H](NC(=O)[C@H](CC(N)=O)NC(=O)[C@H](CC(C)C)NC(=O)[C@@H](N)CCCNC(=N)N)C(=O)N[C@@H](Cc1ccccc1)C(=O)N[C@@H](CS)C(=O)N[C@@H](Cc1ccccc1)C(=O)N[C@@H](CO)C(=O)N[C@@H](Cc1ccccc1)C(=O)O (H-RLNLFCFSF-OH)	< 3.00
CC[C@H](C)[C@H](NC(=O)CNC(=O)[C@H](CO)NC(=O)[C@H](CC(N)=O)NC(=O)[C@H](CC(=O)O)NC(=O)[C@@H](N)Cc1ccccc1)C(=O)N[C@@H](CO)C(=O)N[C@@H](CC(C)C)C(=O)N[C@@H](CC(C)C)C(=O)O (H-FDNSGISLL-OH)	< 3.00

Q: So what's the measured pIC50 for this one? CC[C@H](C)[C@H](NC(=O)[C@H](CCC(=O)O)NC(=O)[C@H](CCCCN)NC(=O)[C@H](CCC(=O)O)NC(=O)[C@H](CCC(=O)O)NC(=O)[C@@H](N)CCCCN)C(=O)N[C@@H](CC(N)=O)C(=O)N[C@@H](CC(=O)O)C(=O)N[C@@H](CCC(=O)O)C(=O)N[C@@H](Cc1ccc(O)cc1)C(=O)O (H-KEEKEINDEY-OH; N-terminus assumed)
A: < 3.00

Sourced from paper PMC8138313
